Test: Oil-water partitioning of propofol in equilibrated bulk excipient oil/water mixtures
Type: physicochemical
Conditions: oil-water partition coefficient of propofol; 15% excipient oil
readout.label: Log10K

compound	Log10K
CCCC(=O)OCC [Ethyl butyrate (EB), Ethyl butyrate]	4.35
CCCCCCCC(=O)O [Octanoic acid (OA), Octanoic acid]	3.76
CCCCCCCCCCCCCCCC(=O)OC(C)C [Isopropyl palmitate (IP), Isopropyl palmitate]	4.01
CCCCCCCCCCCCCC(=O)OC(C)C [Isopropyl myristate (IM), Isopropyl myristate]	4.08

###

Assay: Oil-water partitioning of propofol in equilibrated bulk excipient oil/water mixtures
Format: physicochemical
Conditions: oil-water partition coefficient of propofol; 5% excipient oil
readout.label: Log10K

molecule	Log10K
CCCCCCCCCCCCCCCC(=O)OC(C)C [Isopropyl palmitate (IP), Isopropyl palmitate]	3.71
CCCCCCCC(=O)O	3.65
CCCCCCCCCCCCCC(=O)OC(C)C [Isopropyl myristate (IM), Isopropyl myristate]	3.92
CCCC(=O)OCC [Ethyl butyrate (EB), Ethyl butyrate]	4.33

###

Experiment: Oil-water partitioning of propofol in equilibrated bulk excipient oil/water mixtures
Type: physicochemical
Settings: propofol in aqueous phase; 1 wt % drug, 15% excipient oil
readout.label: Cfree (mg/L)

[A] CCCCCCCCCCCCCC(=O)OC(C)C [Isopropyl myristate (IM), Isopropyl myristate]
[B] CCCCCCCC(=O)O
Query: Please tell me which of the two, A or B , has the higher reported Cfree value. Please reply using the label of the selected record.
Reply: B

###

Experiment: Oil-water partitioning of propofol in equilibrated bulk excipient oil/water mixtures
Assay type: physicochemical
Conditions: propofol in aqueous phase; 1 wt % drug, 5% excipient oil
readout.label: Cfree (mg/L)

Before answering, review these 2 worked examples.
compound	Cfree, mg/L
CCCC(=O)OCC [Ethyl butyrate (EB), Ethyl butyrate]	6.93
CCCCCCCC(=O)O	33.5

[A] CCCCCCCCCCCCCC(=O)OC(C)C [Isopropyl myristate (IM), Isopropyl myristate]
[B] CCCCCCCCCCCCCCCC(=O)OC(C)C [Isopropyl palmitate (IP), Isopropyl palmitate]
Query: Select the item with the higher value of Cfree from the options A and B listed. State your choice using its label.
Reply: B
(B: 28.1 mg/L, A: 16.9 mg/L)
